Please respond with reported microsomal CLint at 1 µM for every item in the list.
Protocol Notes: Metabolic stability in human liver microsomes assessed as intrinsic clerance at 1 uM and measured upto 60 mins by HPLC-MS/MS analysis
Assay type: ADME, Microsome
Condition: liver microsomes, read-out: CLH
Answers are plain numbers, in µL/min/mg.

Previously resolved entries follow.
[
  {
    "Molecule": "COc1ccc([C@H](Cc2c(Cl)c[n+]([O-])cc2Cl)OC(=O)c2ccc(CN[C@@H](C(=O)O[C@H]3CN4CCC3CC4)c3ccccc3)s2)cc1OC",
    "microsomal CLint at 1 µM [µL/min/mg]": 213
  },
  {
    "Molecule": "COc1ccc([C@H](Cc2c(Cl)c[n+]([O-])cc2Cl)OC(=O)c2ccc(CNC(C)(C(=O)O[C@H]3CN4CCC3CC4)c3ccccc3)s2)cc1OC (stereo in doubt; 1f)",
    "microsomal CLint at 1 µM [µL/min/mg]": 470
  }
]

Prompt: # query: microsomal CLint at 1 µM of entry COc1ccc([C@H](Cc2c(Cl)c[n+]([O-])cc2Cl)OC(=O)c2ccc(CNC(CO)(C(=O)O[C@H]3CN4CCC3CC4)c3ccccc3)s2)cc1OC (stereo in doubt; 3f)
Completion: 331

The measurements presented in this section are drawn from ChEMBL document CHEMBL5360646.
